Source of measurements: patent US11566007B2

What pIC50 was measured for each of the following?
test system: NCI-H358 (K-Ras G12C); experiment: CellTiter-Glo cell viability assay, NCI-H358; assay type: cell-based, human; conditions: Homo sapiens, NCI-H358, 120 h, NCI-H358, 5-day treatment; class symbols; read-out: Additional H358 Cell Viability assay data (K-Ras G12C, IC50)
pIC50: −log10 of the molar value.

molecule: C=CC(=O)N1CC[C@H](C(=O)N(C)[C@H](C(=O)N[C@H]2Cc3cccc(c3)-c3ccc4c(c3)c(c(-c3cccnc3[C@H](C)OC)n4CC)CC(C)(C)COC(=O)[C@@H]3CCCN(N3)C2=O)C(C)(C)F)C1 (atropisomer, axis not shown) [Example A693]
target or system: NCI-H358 (K-Ras G12C)
pIC50: 6.00 to 7.00
//
molecule: C/C=C(\C)S(=O)(=O)N1CC[C@H](C(=O)N(C)[C@H](C(=O)N[C@H]2Cc3cc(O)cc(c3)-c3ccc4c(c3)c(c(-c3cccnc3[C@H](C)OC)n4CC)CC(C)(C)COC(=O)[C@@H]3CCCN(N3)C2=O)C(C)C)C1 (atropisomer, axis not shown) [Example A306]
target or system: NCI-H358 (K-Ras G12C)
pIC50: 7.00 to 8.00
//
molecule: C=CC(=O)N1CC[C@H](C(=O)N(C)[C@H](C(=O)N[C@H]2Cc3csc(n3)-c3ccc4c(c3)c(c(-c3cc(N5CCN(C)CC5)cnc3[C@H](C)OC)n4CC(F)(F)F)CC(C)(C)COC(=O)[C@@H]3CCCN(N3)C2=O)C(C)C)C1 [Example A410]
target or system: NCI-H358 (K-Ras G12C)
pIC50: > 8.00

Each of the following entries comes with a recorded value; kindly state pIC50 for each.
1. C=CC(=O)N1CCO[C@H]2CN(C(=O)N(C)[C@H](C(=O)N[C@H]3Cc4cccc(n4)-c4ccc5c(c4)c(c(-c4cccnc4[C@H](C)OC)n5CC)CC(C)(C)COC(=O)[C@@H]4CCCN(N4)C3=O)C(C)C)C[C@H]21 (atropisomer, axis not shown) [Example A597]
2. C=CC(=O)Nc1ncc(C(=O)N(C)[C@H](C(=O)N[C@H]2Cc3cccc(c3)-c3ccc4c(c3)c(c(-c3cccnc3[C@H](C)OC)n4CC)CC(C)(C)COC(=O)[C@@H]3CCCN(N3)C2=O)C(C)C)n1C (atropisomer, axis not shown) [Example A474]
3. C=CC(=O)N1CC[C@H](C(=O)N(C)[C@H](C(=O)N[C@H]2Cc3cc(O)cc(c3)-c3ccc4c(c3)c(c(-c3cncc(COC)c3)n4CC)CC(C)(C)COC(=O)[C@@H]3CCCN(N3)C2=O)C(C)C)C1 [Example A83]
4. C=CC(=O)N1CCN(C(=O)N(C)[C@H](C(=O)N[C@H]2Cc3nc(cs3)-c3ccc4c(c3)c(c(-c3cccnc3[C@H](C)OC)n4CC)CC(C)(C)COC(=O)[C@@H]3CCCN(N3)C2=O)C(C)C)C2(CC2)C1 (atropisomer, axis not shown) [Example A395]
5. C=CC(=O)N1CCC[C@H]2CN(C(=O)N(C)[C@H](C(=O)N[C@H]3Cc4nc(cs4)-c4ccc5c(c4)c(c(-c4cccnc4[C@H](C)OC)n5CC)CC(C)(C)COC(=O)[C@@H]4CCCN(N4)C3=O)C(C)C)C[C@H]21 (atropisomer, axis not shown) [Example A618]

1. > 8.00
2. > 8.00
3. 7.00 to 8.00
4. > 8.00
5. 7.00 to 8.00
